test.method.notes: clinical
experimental.parameters: human, in vivo, 30 mg, Tmax

{"item.smiles": "O=C1CC[C@H](N2Cc3cc(N4CCN(CC5CCN(c6ccc([C@@H]7c8ccc(O)cc8CC[C@@H]7c7ccccc7)cc6)CC5)CC4)ccc3C2=O)C(=O)N1", "Tmax (h)": 4}
{"item.smiles": "O=C1CC[C@@H](N2Cc3cc(N4CCN(CC5CCN(c6ccc([C@@H]7c8ccc(O)cc8CC[C@@H]7c7ccccc7)cc6)CC5)CC4)ccc3C2=O)C(=O)N1", "Tmax (h)": 8}

* * *

test.method.notes: clinical
experimental.parameters: human, in vivo, 120 mg
measured.quantity: half-life (h)

{"molecule": "O=C1CC[C@H](N2Cc3cc(N4CCN(CC5CCN(c6ccc([C@@H]7c8ccc(O)cc8CC[C@@H]7c7ccccc7)cc6)CC5)CC4)ccc3C2=O)C(=O)N1 [Compound A]", "quantitative.result": 27}
{"molecule": "O=C1CC[C@@H](N2Cc3cc(N4CCN(CC5CCN(c6ccc([C@@H]7c8ccc(O)cc8CC[C@@H]7c7ccccc7)cc6)CC5)CC4)ccc3C2=O)C(=O)N1 [Compound B]", "quantitative.result": 93}

* * *

test.method.notes: clinical
experimental.parameters: human, in vivo, median Tmax across dose levels

{"item.smiles": "O=C1CC[C@H](N2Cc3cc(N4CCN(CC5CCN(c6ccc([C@@H]7c8ccc(O)cc8CC[C@@H]7c7ccccc7)cc6)CC5)CC4)ccc3C2=O)C(=O)N1", "Tmax": "4 to 7 h"}

* * *

test.method.notes: clinical
experimental.parameters: human, in vivo, 200 mg, Tmax
The following molecules are listed with their measured Tmax values.

{"item.smiles": "O=C1CC[C@@H](N2Cc3cc(N4CCN(CC5CCN(c6ccc([C@@H]7c8ccc(O)cc8CC[C@@H]7c7ccccc7)cc6)CC5)CC4)ccc3C2=O)C(=O)N1", "Tmax / h": 7.8}
{"item.smiles": "O=C1CC[C@H](N2Cc3cc(N4CCN(CC5CCN(c6ccc([C@@H]7c8ccc(O)cc8CC[C@@H]7c7ccccc7)cc6)CC5)CC4)ccc3C2=O)C(=O)N1", "Tmax / h": 5.8}

* * *

test.method.notes: Preclinical PK after PO or intravenous dose
Design: species or system mouse, dog, and monkey
experimental.parameters: rat, in vivo, intravenous; read-out: VSS

{"compound": "O=C1CC[C@H](N2Cc3cc(N4CCN(CC5CCN(c6ccc([C@@H]7c8ccc(O)cc8CC[C@@H]7c7ccccc7)cc6)CC5)CC4)ccc3C2=O)C(=O)N1 [Compound A]", "Vd": "6 L/kg"}

* * *

test.method.notes: clinical
experimental.parameters: human, in vivo, 700 mg, Cmax

{"item.smiles": "O=C1CC[C@H](N2Cc3cc(N4CCN(CC5CCN(c6ccc([C@@H]7c8ccc(O)cc8CC[C@@H]7c7ccccc7)cc6)CC5)CC4)ccc3C2=O)C(=O)N1", "Cmax": "1450 ng/mL"}

* * *

test.method.notes: MCF7/estradiol xenograft tumor growth inhibition
Assay type: in vivo, mouse
experimental.parameters: in vivo, oral; mouse, 30 mg/kg; read-out: mean AUC0-24
Protocol: The 30 mg/kg dose was associated with a mean AUC0-24 of 5,717 ng·h/mL. The tumor ER levels were reduced by ≥94% at all doses compared to mice administered vehicle only (FIG. 3B). The 30 mg/kg dose was associated with a mean AUC0-24 of 5,717 ng·h/mL.

{"item.smiles": "O=C1CC[C@H](N2Cc3cc(N4CCN(CC5CCN(c6ccc([C@@H]7c8ccc(O)cc8CC[C@@H]7c7ccccc7)cc6)CC5)CC4)ccc3C2=O)C(=O)N1", "AUC(0-t) (ng·h/mL)": 5720}
